Please respond with reported growth for every item in the list.
# Tested on: A549/ATCC NSCLC
# Measurement Protocol: NCI-60 one-dose screen, 48 h (100 = growth as untreated, 0 = no growth, -100 = all killed)
# Recorded Conditions: 10 µM
This is part of a sample that, as a whole, favours compounds with a hit. Of some 83,000 tested, about 20% had one in any assay. Activity calls are given as the source filed them. How the source made its calls: active means growth percent below 10; inactive means the rest.

Entry CCN(CC)CCNc1ccc(C)c2sc3cc(Cl)ccc3c(=O)c12 — recorded growth = 31.1% (inactive)

Entry CS(=O)(=O)c1nccc(-c2c(-c3ccc(OCCc4ccccc4)cc3)nc3sccn23)n1 — recorded growth = 101% (inactive)

Entry Cc1ccc(NCCNCC(C)(C)O)c2c(=O)c3ccc(Cl)cc3sc12 — recorded growth = -42.9% (active)

Entry CC(=O)N[C@H](C(=O)N[C@@H](CCCNC(=N)N)C(=O)N[C@@H](CCCCN)C(=O)N[C@@H](CCCNC(=N)N)C(=O)N[C@]1(C)CCCCCC/C=C\CCC[C@@](C)(C(=O)N[C@@H](CCCNC(=N)N)C(=O)N[C@@H](CCC(=O)O)C(=O)N[C@@H](CC(C)C)C(=O)N[C@H](C(=O)N[C@@H](CCC(=O)O)C(N)=O)C(C)C)NC(=O)[C@H](CCC(N)=O)NC(=O)[C@H](CC(C)C)NC(=O)[C@H](CC(C)C)NC(=O)[C@H](CCCNC(=N)N)NC(=O)[C@H](CCCNC(=N)N)NC(=O)[C@H](CC(C)C)NC1=O)C(C)C — recorded growth = 12.4% (inactive)

Entry S=C1N(c2ccccc2)CN(C2CCCCC2)CN1c1ccccc1 — recorded growth = 45.5% (inactive)

Entry N#Cc1c(N)nc(-c2cc(F)cc(C(F)(F)F)c2)nc1-c1ccccc1F — recorded growth = 41.7% (inactive)

Entry COc1ccc(CCN2CCC(Nc3nc4ccccc4n3Cc3ccc(F)cc3)CC2)cc1 — recorded growth = 28.7% (inactive)

Entry O=C(CCCSc1nc(-c2ccccc2)cc(-c2ccc(Cl)cc2)n1)NO — recorded growth = 5.6% (active)

====

# System: KM12 colon
# Measurement Protocol: NCI-60 one-dose screen, 48 h (100 = growth as untreated, 0 = no growth, -100 = all killed)
# Recorded Conditions: 10 µM
About 83,000 compounds went through this panel and 20% of them were active in at least one assay; those are over-represented in the sample as a whole.
# growth >= 90% gives satisfied, anything below gives not satisfied

Can O=c1[nH]c(=O)n(C2C[C@H](O)[C@@H](CO)O2)cc1C(F)(F)F (some centres not stated) be said to have growth at or above 90%? satisfied

Can C=C(NC(=O)C(=C)NC(=O)c1csc(C2=NC3c4csc(n4)C4NC(=O)c5csc(n5)C(C(C)(O)C(C)O)NC(=O)C5CSC(=N5)C(=CC)NC(=O)C(C(C)O)NC(=O)c5csc(n5)C3(CC2)NC(=O)C(C)NC(=O)C(=C)NC(=O)C(C)NC(=O)C(C(C)CC)NC2C=Cc3c(C(C)O)cc(nc3C2O)C(=O)OC4C)n1)C(N)=O (configuration not stated) be said to have growth at or above 90%? not satisfied

Can COc1ccc(/C=C2\CCCC3=C2N=C2SC(C)=CN2C3c2ccc(OC)cc2)cc1 (configuration not stated) be said to have growth at or above 90%? satisfied

Can CC(C)CCN(CCC(C)C)CC(=O)Nc1ccc(S(=O)(=O)c2ccc(NC(=O)CN(CCC(C)C)CCC(C)C)cc2)cc1 be said to have growth at or above 90%? not satisfied

Can Cc1ccc(Cl)cc1NC(=O)CCl be said to have growth at or above 90%? satisfied

Can CCOC(=O)c1cc(C(=O)c2ccc(Cl)cc2)n2ccc(-c3cc[n+](CC(=O)c4ccc(OC)cc4)cc3)cc12 be said to have growth at or above 90%? not satisfied

====

# Test system: HT29 colon
# Measurement Protocol: NCI-60 one-dose screen, 48 h (100 = growth as untreated, 0 = no growth, -100 = all killed)
# Recorded Conditions: 10 µM
# Method: Growth inhibition of the HT29 human tumor cell line is measured as a screen for anti-cancer activity. Cells are grown in 96 well plates and exposed to the test compound for 48 hours. Compounds are tested at a single concentration, which is 10^-5 M for most compounds. The reported endpoint is percent growth (GI% or GIPRCNT), where numbers from 0 - 100% represent growth inhibition, and numbers from -100% - 0 represent cell death. For example, a value of 40 represents 60% growth inhibition. […]
This is part of a sample that, as a whole, favours compounds with a hit. Of some 83,000 tested, about 20% had one in any assay.
Consider the reported growth of an entry and match it to a band in lowest: < 20%; middle: ≥ 20% and < 90%; highest: ≥ 90%

# bin label for O=[N+]([O-])c1ccc2ncccc2c1Cl lowest

# bin label for Oc1ccc(-c2[nH]c3ccccc3c2-c2nc3ccccc3o2)cc1 middle

# bin label for Nc1c(Br)cc(Br)c2c1[nH]c(=O)c1ccccc12 highest

# bin label for COC(=O)C1(O)NC(=C(C#N)C#N)C(C#N)=C1C(=O)c1ccc(OC)c(OC)c1 (stereo not drawn) highest

# bin label for CCN(CC)CCN1c2nc3ccccc3cc2Sc2cc3ccccc3nc21 lowest

# bin label for CC(=O)OC1CC2C(C)(C)CCC[C@]2(C)C2=C1C(O)=C(C(C)C)C(=O)C2=O (stereo partly drawn) lowest

# bin label for Cc1n[nH]c(C)c1N=Nc1cccc2c1C(=O)c1ccccc1C2=O highest

# bin label for CC[C@@H](C(=O)[C@@H](C)[C@@H](O)[C@H](C)[C@@H]1O[C@@H]([C@@H](CC)C(=O)O)CC[C@@H]1C)C1O[C@]2(C=CC(=O)[C@]3(CC[C@@](C)([C@H]4CC[C@](O)(CC)[C@H](C)O4)O3)O2)[C@H](C)C[C@@H]1C (stereo partly drawn) middle

# bin label for Cn1c2ccccc2c2c3[nH][nH]c(=O)c3c3c4ccccc4[nH]c3c21 middle

# bin label for COc1ccc2c(c1)C(=O)/C(=C/c1cccc(OCC(=O)c3ccc([N+](=O)[O-])cc3)c1)CO2 lowest

# bin label for CC[C@@H](C(=O)[C@H](C)[C@H](O)[C@@H](C)[C@H]1O[C@H]([C@@H](CC)C(=O)O)CC[C@H]1C)C1O[C@]2(C=C[C@@H](O)[C@]3(CC[C@@](C)([C@H]4CC[C@](O)(CC)[C@H](C)O4)O3)O2)[C@H](C)C[C@@H]1C (stereo partly drawn) middle

# bin label for COc1ccc(-c2cc(-c3ccccc3)nc(SCCCCCCC(=O)NO)n2)cc1 middle

# bin label for CC(C)CCN(CCC(C)C)CC(=O)Nc1ccc(S(=O)(=O)c2ccc(NC(=O)CN(CCC(C)C)CCC(C)C)cc2)cc1 lowest

# bin label for CCCN1CN2C(=O)N3CN(CCC)CN4C(=S)N(C1)C2C34 (stereo not drawn) highest

# bin label for Cc1cc(Cl)ccc1Nc1nc(C(F)(F)F)ccc1C(=O)N/N=C/c1cccc(O)c1 middle

====

# Tested on: MDA-MB-435 melanoma
# Measurement Protocol: NCI-60 one-dose screen, 48 h (100 = growth as untreated, 0 = no growth, -100 = all killed)
# Recorded Conditions: 10 µM
Compounds without any hit were thinned out: in the full panel of roughly 83,000, 20% have a hit.
# growth >= 30% gives true (1), anything below gives false (0)

Can CCn1c(SCc2ccc(C)cc2)nnc1-c1nn(-c2ccc(Cl)cc2Cl)c(-c2ccc(Cl)cc2)c1C be said to have growth at or above 30%? false (0)

Can C/C(=C/CCC(C)[C@@H]1CC[C@]2(C)C3=C(CC[C@@]12C)[C@@]1(C)CCC(=O)C(C)(C)[C@@H]1CC3)C(=O)O (some centres undefined) be said to have growth at or above 30%? false (0)

Can CNC(=O)c1cc(Oc2ccc3c(c2)sc2nc(-c4ccc(NC(=O)Nc5ccc(Cl)c(C(F)(F)F)c5)cc4)cn23)ccn1 be said to have growth at or above 30%? true (1)

Can CCn1cc(C(=O)O)c(=O)c2cc(F)c(N3CCNCC3)cc21 be said to have growth at or above 30%? true (1)

Can COc1ccccc1-n1c(-c2csc(NC(C)=O)n2)n[nH]c1=S be said to have growth at or above 30%? true (1)

Can CCCCC/C=C/C/C=C/CCCCCCCC1=NC(C)(C)CN1C(C)C be said to have growth at or above 30%? false (0)

Can C[C@]12CCC3c4ccc(O)cc4C[C@@H](CCCCCCCCCS(=O)CCCC(F)(F)C(F)(F)F)C3C1CC[C@@H]2O (some centres undefined) be said to have growth at or above 30%? true (1)

Can C/C(=N\O)c1ccc(NC(=O)CSc2nnc(-c3ccccc3)n2-c2ccccc2)cc1 be said to have growth at or above 30%? true (1)

Can O=C1c2c(c3c4ccccc4n(CCCCCCN4CCOCC4)c3c3[nH]c4ccccc4c23)C(=O)N1O be said to have growth at or above 30%? true (1)

Can CC(C)(C)OC(=O)CN1CCc2c(sc3ncnc(N/N=C/c4cccc5ccccc45)c23)C1 be said to have growth at or above 30%? false (0)

Can COc1ccc(C(=O)N2C=Cc3ccccc3C2C#N)cc1 (centres undefined) be said to have growth at or above 30%? true (1)

Can COc1ccc(C(=O)N/N=C/c2cc(C(F)(F)F)ccc2Cl)cc1 be said to have growth at or above 30%? true (1)

Can Cc1ccc(C2NC(=S)N3C(c4ccc(C)cc4)NC(=S)N23)cc1 (centres undefined) be said to have growth at or above 30%? false (0)

Can CCOS(=O)(=O)c1c(C(C)C)cc(C(C)C)cc1C(C)C be said to have growth at or above 30%? true (1)

Can COc1cc(-c2nn(-c3cccc(NC(=O)CCN4CCN(c5ccccc5)CC4)c3)cc2-c2ccncc2)ccc1Cl be said to have growth at or above 30%? false (0)

Can C(=N\Nc1ncnc2sc3c(c12)CCNC3)/c1cccc2ccccc12 be said to have growth at or above 30%? true (1)

Can Cc1cc(=O)n2nnc3cc(Cl)c(Cl)cc3n12 be said to have growth at or above 30%? true (1)

Can CCOC(=O)c1cc(C(=O)c2ccc(OC)c(OC)c2)n2ccncc12 be said to have growth at or above 30%? true (1)

Can Cc1c(Cl)cccc1NC(=O)CN1CCOCC1 be said to have growth at or above 30%? true (1)

Can NS(=O)(=O)Oc1ccc(NC(=O)C2CCCCCC2)cc1 be said to have growth at or above 30%? true (1)

Can COC(=O)c1cc2oc(/C=C3/SC(=S)N(N)C3=O)cc2n1Cc1ccccc1 be said to have growth at or above 30%? false (0)

Can CCOc1ccccc1/C=N\N=C\c1ccccc1O be said to have growth at or above 30%? true (1)

Can Cc1cc(C(C#N)c2ccc(Cl)cc2)c(Cl)cc1NC(=O)c1cc(I)cc(I)c1O (centres undefined) be said to have growth at or above 30%? true (1)

Can Cc1cc(Cl)ccc1Nc1nc(C(F)(F)F)ccc1C(=O)N/N=C/c1c(Cl)cccc1Cl be said to have growth at or above 30%? false (0)

Can CCCCCCCCCCOC(c1ccccc1)c1ccccc1 be said to have growth at or above 30%? true (1)

Can COc1ccc(/C=C2\CCCC3C2=Nc2ccccc2NC3c2ccc(OC)cc2)cc1 (centres undefined) be said to have growth at or above 30%? false (0)

Can COc1ccc(-c2cc(-c3ccc(Cl)cc3)nc(SCCCC(=O)NO)n2)cc1OC be said to have growth at or above 30%? false (0)

Can C[C@]12CC[C@@H]3c4ccc(OS(=O)(=O)O)cc4CC[C@H]3[C@@H]1CC[C@@H]2NS(=O)(=O)c1ccc(-c2ccccc2)cc1 be said to have growth at or above 30%? true (1)

Can CC(C)CCN(CCC(C)C)CC(=O)Nc1ccc(S(=O)(=O)c2ccc(NC(=O)CN(CCC(C)C)CCC(C)C)cc2)cc1 be said to have growth at or above 30%? true (1)

Can COc1ccc(/C=C/C(=O)C(=O)/C=C/c2ccc(OC)c(OC)c2)cc1OC be said to have growth at or above 30%? false (0)

Can COc1ccc(/C(C#N)=C/c2cccc(OC)c2OC)cc1 be said to have growth at or above 30%? false (0)

Can COc1ccc(-c2cc(-c3ccc(Cl)cc3)nc(SCCCCCCC(=O)NO)n2)cc1OC be said to have growth at or above 30%? true (1)

Can CCN(CC)c1ccc(/C=C2\SC(=O)C(Nc3nnc(-c4cccnc4SCc4ccccc4)o3)C2=O)cc1 (centres undefined) be said to have growth at or above 30%? false (0)

Can O=C(O)COc1c(Cl)cc([N+](=O)[O-])cc1Cl be said to have growth at or above 30%? true (1)

Can CC1=CC2C(C(O)CC3(C)C2CC(C)C32OCOC23COCO3)C2(C)C/C(=C/O)C(=O)C=C12 (centres undefined) be said to have growth at or above 30%? false (0)

Can c1ccc(CSc2ncccc2-c2nnc(SCCN3CCOCC3)o2)cc1 be said to have growth at or above 30%? true (1)

Can C=CCN(CC=C)C(=O)[C@H](CC)[C@@H]1CC[C@@H](C)[C@@H]([C@H](C)[C@@H](O)[C@@H](C)C(=O)[C@H](CC)C2O[C@]3(C=C[C@@H](O)[C@]4(CC[C@@](C)([C@H]5CC[C@](O)(CC)[C@H](C)O5)O4)O3)[C@H](C)C[C@@H]2C)O1 (some centres undefined) be said to have growth at or above 30%? false (0)

Can O=S(=O)(Oc1ccc(-c2ccc3sccc3c2)cc1)c1ccc(F)cc1 be said to have growth at or above 30%? true (1)
